Test system: 3T3-L1 cells
Experimental Protocol: Adiponectin output in culture supernatant of differentiated 3T3-L1 cells (LANCE immunoassay)
Type: cell-based, mouse
Run Parameters: adiponectin concentration in culture supernatant, test compound 7 μg/mL, 72 hours; control without compound 24 ng/mL

| Compound | Adiponectin output / ng/mL |
| --- | --- |
| CCCCCCCCCCCC(=O)N[C@H](C(=O)NC1CCCCC1)C(C)C (racemic) [Example 23, N-lauroyl-L-valine cyclohexylamide] | 65 |
| CCCCCCCCCCCC(=O)NC(C(N)=O)C(C)C (racemic) [Example 21] | 70 |
| CCCCCCCCCCCC(=O)N(CC)[C@H](C(=O)O)C(C)C [Example 24] | 66 |
| CCCCCCCCCCCCNC(=O)C(NC(=O)CCCCCCCCCCC)C(C)C (racemic) [Example 22] | 64 |
